target: T1, AXLECDHis (extracellular domain of human AXL) (Homo sapiens, UniProt P30530); assay: Binding affinity by Bio-Layer Interferometry (Octet); details: soluble AXLECDHis, 30° C, 1:1 model
T1 construct: the extracellular domain (ECD) of human AXL (aa 1-447) with a C-terminal His tag (AXLECDHis); His tag (C); made in house; host or cells: HEK-293F
T1 sequence (P30530 26-447): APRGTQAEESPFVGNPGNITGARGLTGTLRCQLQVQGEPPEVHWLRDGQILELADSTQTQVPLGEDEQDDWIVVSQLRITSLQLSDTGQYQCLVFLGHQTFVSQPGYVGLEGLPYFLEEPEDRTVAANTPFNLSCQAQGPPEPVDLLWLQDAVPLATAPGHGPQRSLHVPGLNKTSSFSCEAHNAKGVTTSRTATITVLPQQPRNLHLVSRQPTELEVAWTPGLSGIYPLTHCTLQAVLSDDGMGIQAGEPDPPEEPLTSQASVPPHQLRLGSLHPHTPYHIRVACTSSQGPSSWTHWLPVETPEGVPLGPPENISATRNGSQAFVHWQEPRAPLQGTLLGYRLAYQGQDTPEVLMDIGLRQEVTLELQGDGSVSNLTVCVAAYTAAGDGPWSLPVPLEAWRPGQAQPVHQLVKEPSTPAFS
Marks after values point to notes of the source that are not given here.
Item-by-item account of Kdis
The reply should read as a number followed by its unit.

Would you kindly share the measured Kdis for IgG1-AXL-726: human IgG1,κ anti-AXL antibody, VH SEQ ID NO:31, VL SEQ ID NO:33; FN2 domain binding (antibody, V domains shown, homo sapiens) VH: QVQLQQWGAGLLKPSETLSLTCAIDGGSFSGYYWSWIRQPPGKGLEWIGEISHSGRTNYNPSLKSRVTISIDTSKNQFSLKLSSVAAADTAVYYCARFITMIRGAIITHFDYWGQGALVTVSS VL: DIQMTQSPSSLSASVGDRVTITCRASQGISSWLAWYQQKPEKAPKSLIYAASSLQSGVPSRFSGSGSGTDFTLTISSLQPEDFATYYCQQYHSYPYTFGQGTKLEIK ? 0.00013 s⁻¹

Entry IgG1-AXL-511: human IgG1,κ anti-AXL antibody, VH SEQ ID NO:136, VL SEQ ID NO:140; Ig2 domain binding (antibody, V domains shown, homo sapiens) VH: EVQLLESGGGLVQPGGSLRLSCAASGFTFSSYAMNWVRQAPGKGLEWVSGISGSGGHTYHADSVKGRFTISRDNSKNTLYLQMNSLRAEDTAVYYCAKDRYDILTGYYNLLDYWGQGTLVTVSS VL: DIQMTQSPSSLSASVGDRVTITCRASQGISSWLAWYQQKPEEAPKSLIYAASSLQSGVPSRFSGSGSGTDFTLTISSLQPEDFATYYCQQYNSYPLTFGGGAKVEIK has what Kdis? 0.0039 s⁻¹

Fill blank: measured Kdis of the molecule IgG1-AXL-726-M101L: point mutant of IgG1-AXL-726, VH SEQ ID NO:32, VL SEQ ID NO:33 (antibody, V domains shown, homo sapiens) VH: QVQLQQWGAGLLKPSETLSLTCAIDGGSFSGYYWSWIRQPPGKGLEWIGEISHSGRTNYNPSLKSRVTISIDTSKNQFSLKLSSVAAADTAVYYCARFITLIRGAIITHFDYWGQGALVTVSS VL: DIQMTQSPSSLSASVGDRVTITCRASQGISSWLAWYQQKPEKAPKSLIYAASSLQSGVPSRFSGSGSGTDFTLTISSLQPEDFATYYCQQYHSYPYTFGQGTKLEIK is ____. 6.9e-05 s⁻¹

In the following, a different molecule is considered.
Requested read-out: Kdis. Entry: IgG1-AXL-733: human IgG1,κ anti-AXL antibody, VH SEQ ID NO:34, VL SEQ ID NO:35; FN1 domain binding (antibody, V domains shown, homo sapiens) VH: QVQLVESGGGVVQPGRSLRLSCAASGFSFSTYAMHWVRQAPGKGLEWVAVISYDGDNKYSADSVKGRFTISRDNSKNTLYLQMNSLRAEDTAVYYCARGRKLGIDAFDIWGQGTMVTVSS VL: AIQLTQSPSSLSASVGDRVTITCRASQGISSALAWYQQKPGKAPKLLIYDASSLESGVPSRFSGSGSGTDFTLTISGLQPEDFATYYCQQFNSYPFTFGPGTKVDIK 0.0097 s⁻¹
